Test system: mouse CCL5 secretion by BV-2 cell line
Assay: CCL5 secretion by LPS/IFN-γ-activated BV-2 cells (ELISA)
Type: cell-based
Settings: Mus musculus, BV-2, 24 h co-incubation
Property: IC50; scope: individual molecules

Molecule: CCc1cc(/C(C)=N/OCc2ccc(C3CCCCC3)c(C(F)(F)F)c2)ccc1CN1CC(C(=O)O)C1 [Siponimod, reference compound]
Value unit: nM
Result comparator: >
IC50: 10000
--
Molecule: CN(c1ncnc2[nH]ccc12)[C@@H]1CCc2cc(C#N)nn2C1
Value unit: nM
Result comparator: =
IC50: 863

====

Test system: IL-2-induced pSTAT5 in hPBMC
Assay: IL-2-induced pSTAT5 in hPBMC (flow cytometry, CD4 positive cells)
Format: cell-based
Settings: Homo sapiens, 4 ng/mL IL-2, CD4 positive cells
pIC50: −log10 of the molar value.
Assay metric: pIC50

Line notation: CN(c1ncnc2[nH]ccc12)[C@@H]1CCc2cc(C#N)nn2C1
Assay metric: pIC50
Observed measurement: 7.44

====

Tested on: IL-6-induced pSTAT1 in hPBMC
Test: IL-6-induced pSTAT1 in hPBMC (flow cytometry, CD4 positive cells)
Assay type: cell-based
Details: Homo sapiens, 10 ng/mL IL-6, CD4 positive cells

Compound: CN(c1ncnc2[nH]ccc12)[C@@H]1CCc2cc(C#N)nn2C1 [Compound I]
IC50, nM: 73.1
